Where do the numbers come from? From the supplement of paper PMC10307832.

system: SW 1573; experiment: relative viability (nuclei count vs DMSO), 5 days (fraction); higher = more cells survive; details: first compound 0.002 µM
observable: relative viability
Numbers only.

# count of solved cases: 2
CCNC(=O)c1noc(-c2cc(C(C)C)c(O)cc2O)c1-c1ccc(CN2CCOCC2)cc1 [Luminespib] + COc1cccc2cc(-c3nc([C@H]4CC[C@H](C(=O)O)CC4)n4ncnc(N)c34)[nH]c12 [OSI-027] (partner 0.5 µM) ... 0.633
CCNC(=O)c1noc(-c2cc(C(C)C)c(O)cc2O)c1-c1ccc(CN2CCOCC2)cc1 [Luminespib] + CC1(C)CCC(c2ccc(Cl)cc2)=C(CN2CCN(c3ccc(C(=O)NS(=O)(=O)c4ccc(N[C@H](CCN5CCOCC5)CSc5ccccc5)c(S(=O)(=O)C(F)(F)F)c4)cc3)CC2)C1 [Navitoclax] (partner 0.5 µM) ... 0.927

For the compound CCNC(=O)c1noc(-c2cc(C(C)C)c(O)cc2O)c1-c1ccc(CN2CCOCC2)cc1 [Luminespib] + CC(=O)c1c(C)c2cnc(Nc3ccc(N4CCNCC4)cn3)nc2n(C2CCCC2)c1=O [Palbociclib] (partner 0.5 µM) , give its measured relative viability value.
0.426

---

system: RERF-LC-KJ; experiment: relative viability (nuclei count vs DMSO), 5 days (fraction); higher = more cells survive; conditions: first compound 0.003162 µM
observable: relative viability

I'm hoping you can list relative viability for every molecule here, please.
1. Cc1cn(-c2cc(NC(=O)c3ccc(C)c(Nc4nccc(-c5cccnc5)n4)c3)cc(C(F)(F)F)c2)cn1 [Nilotinib] + CC1(C)CCC(c2ccc(Cl)cc2)=C(CN2CCN(c3ccc(C(=O)NS(=O)(=O)c4ccc(N[C@H](CCN5CCOCC5)CSc5ccccc5)c(S(=O)(=O)C(F)(F)F)c4)cc3)CC2)C1 [Navitoclax] (partner 0.5 µM)
2. Cc1cn(-c2cc(NC(=O)c3ccc(C)c(Nc4nccc(-c5cccnc5)n4)c3)cc(C(F)(F)F)c2)cn1 [Nilotinib] + C[C@]1(O)C[C@@H](c2nc(-c3ccc4ccc(-c5ccccc5)nc4c3)c3c(N)nccn32)C1 [Linsitinib] (partner 1 µM)

1: 0.949; 2: 0.941

---

system: NCI-H1944; experiment: relative viability (nuclei count vs DMSO), 5 days (fraction); higher = more cells survive; conditions: first compound 0.001 µM
Would you mind telling me the reported relative viability of each entry?
Answers are plain numbers.

# count of solved cases: 3
Cc1cn(-c2cc(NC(=O)c3ccc(C)c(Nc4nccc(-c5cccnc5)n4)c3)cc(C(F)(F)F)c2)cn1 [Nilotinib] + O=C(c1cc(Cc2n[nH]c(=O)c3ccccc23)ccc1F)N1CCN(C(=O)C2CC2)CC1 [Olaparib] (partner 8 µM) ... 0.379
Cc1cn(-c2cc(NC(=O)c3ccc(C)c(Nc4nccc(-c5cccnc5)n4)c3)cc(C(F)(F)F)c2)cn1 [Nilotinib] + COc1cc2c(Oc3ccc(NC(=O)C4(C(=O)Nc5ccc(F)cc5)CC4)cc3F)ccnc2cc1OCCCN1CCOCC1 [Foretinib] (partner 0.25 µM) ... 0.907
Cc1cn(-c2cc(NC(=O)c3ccc(C)c(Nc4nccc(-c5cccnc5)n4)c3)cc(C(F)(F)F)c2)cn1 [Nilotinib] + N=C(N)NC(=N)NCCc1ccccc1 [Phenformin] (partner 250 µM) ... 0.193

For the molecule Cc1cn(-c2cc(NC(=O)c3ccc(C)c(Nc4nccc(-c5cccnc5)n4)c3)cc(C(F)(F)F)c2)cn1 [Nilotinib] + Nc1ncn([C@H]2C[C@H](O)[C@@H](CO)O2)c(=O)n1 [Decitabine] (partner 2 µM) , give its measured relative viability value.
0.445

---

tested on: NCI-H2009; assay: relative viability (nuclei count vs DMSO), 5 days (fraction); higher = more cells survive; settings: first compound 2 µM
observable: relative viability
One number for each entry.

CN1CCN(CCOc2cc(OC3CCOCC3)c3c(Nc4c(Cl)ccc5c4OCO5)ncnc3c2)CC1 [Saracatinib] + Nc1ncn([C@H]2C[C@H](O)[C@@H](CO)O2)c(=O)n1 [Decitabine] (partner 2 µM) ... 0.322

For the compound CN1CCN(CCOc2cc(OC3CCOCC3)c3c(Nc4c(Cl)ccc5c4OCO5)ncnc3c2)CC1 [Saracatinib] + Cc1cc(Nc2cc(N3CCN(C)CC3)nc(Sc3ccc(NC(=O)C4CC4)cc3)n2)n[nH]1 [Tozasertib] (partner 0.1 µM) , give its measured relative viability value.
0.609

---

Would you mind telling me the reported relative viability of each entry?
tested on: NCI-H441; assay: relative viability (nuclei count vs DMSO), 5 days (fraction); higher = more cells survive; conditions: first compound 0.1 µM
One number for each entry.

Cc1cn(-c2cc(NC(=O)c3ccc(C)c(Nc4nccc(-c5cccnc5)n4)c3)cc(C(F)(F)F)c2)cn1 [Nilotinib] + COc1cc2c(Oc3ccc(NC(=O)C4(C(=O)Nc5ccc(F)cc5)CC4)cc3F)ccnc2cc1OCCCN1CCOCC1 [Foretinib] (partner 0.25 µM) ... 0.805
Cc1cn(-c2cc(NC(=O)c3ccc(C)c(Nc4nccc(-c5cccnc5)n4)c3)cc(C(F)(F)F)c2)cn1 [Nilotinib] + CC(=O)c1c(C)c2cnc(Nc3ccc(N4CCNCC4)cn3)nc2n(C2CCCC2)c1=O [Palbociclib] (partner 0.5 µM) ... 0.192

I'm hoping you can list relative viability for every compound here, please.
1. Cc1cn(-c2cc(NC(=O)c3ccc(C)c(Nc4nccc(-c5cccnc5)n4)c3)cc(C(F)(F)F)c2)cn1 [Nilotinib] + Cc1cc(Nc2cc(N3CCN(C)CC3)nc(Sc3ccc(NC(=O)C4CC4)cc3)n2)n[nH]1 [Tozasertib] (partner 0.1 µM)
2. Cc1cn(-c2cc(NC(=O)c3ccc(C)c(Nc4nccc(-c5cccnc5)n4)c3)cc(C(F)(F)F)c2)cn1 [Nilotinib] + CC(C)C[C@H](NC(=O)[C@H](Cc1ccccc1)NC(=O)c1cnccn1)B(O)O [Bortezomib] (partner 0.002 µM)
3. Cc1cn(-c2cc(NC(=O)c3ccc(C)c(Nc4nccc(-c5cccnc5)n4)c3)cc(C(F)(F)F)c2)cn1 [Nilotinib] + COc1cccc2cc(-c3nc([C@H]4CC[C@H](C(=O)O)CC4)n4ncnc(N)c34)[nH]c12 [OSI-027] (partner 0.5 µM)
4. Cc1cn(-c2cc(NC(=O)c3ccc(C)c(Nc4nccc(-c5cccnc5)n4)c3)cc(C(F)(F)F)c2)cn1 [Nilotinib] + NC(=O)Nc1cc(-c2cccc(F)c2)sc1C(=O)N[C@H]1CCCNC1 [AZD7762] (partner 0.2 µM)

[0.37, 0.219, 0.483, 0.565]

---

tested on: 201T; assay: relative viability (nuclei count vs DMSO), 5 days (fraction); higher = more cells survive; details: first compound 0.6325 µM
// NB: equality with 0.8 counts as criterion not met; only relative viability strictly below is criterion met

Check out these entries, answers already filled in.
CN1CCN(CCOc2cc(OC3CCOCC3)c3c(Nc4c(Cl)ccc5c4OCO5)ncnc3c2)CC1 [Saracatinib] + CS(=O)(=O)N1CCN(Cc2cc3nc(-c4cccc5[nH]ncc45)nc(N4CCOCC4)c3s2)CC1 [Pictilisib] (partner 1 µM) ... criterion met
Cc1csc(=NC2CCCCC2)n1/N=C/c1ccc(O)c(O)c1O [MIM1] + COc1cccc2cc(-c3nc([C@H]4CC[C@H](C(=O)O)CC4)n4ncnc(N)c34)[nH]c12 [OSI-027] (partner 0.5 µM) ... criterion not met
CN1CCN(CCOc2cc(OC3CCOCC3)c3c(Nc4c(Cl)ccc5c4OCO5)ncnc3c2)CC1 [Saracatinib] + COc1cccc2cc(-c3nc([C@H]4CC[C@H](C(=O)O)CC4)n4ncnc(N)c34)[nH]c12 [OSI-027] (partner 0.5 µM) ... criterion met
CN1CCN(CCOc2cc(OC3CCOCC3)c3c(Nc4c(Cl)ccc5c4OCO5)ncnc3c2)CC1 [Saracatinib] + CC(=O)c1c(C)c2cnc(Nc3ccc(N4CCNCC4)cn3)nc2n(C2CCCC2)c1=O [Palbociclib] (partner 0.5 µM) ... criterion met
Cc1csc(=NC2CCCCC2)n1/N=C/c1ccc(O)c(O)c1O [MIM1] + Cc1nc(Nc2ncc(C(=O)Nc3c(C)cccc3Cl)s2)cc(N2CCN(CCO)CC2)n1 [Dasatinib] (partner 0.075 µM) ... criterion met

Report whether reported relative viability is lower than 0.8 (strictly) for Cc1csc(=NC2CCCCC2)n1/N=C/c1ccc(O)c(O)c1O [MIM1] + CS(=O)(=O)CCNCc1ccc(-c2ccc3ncnc(Nc4ccc(OCc5cccc(F)c5)c(Cl)c4)c3c2)o1 [Lapatinib] (partner 2 µM)
criterion not met

Report whether reported relative viability is lower than 0.8 (strictly) for CN1CCN(CCOc2cc(OC3CCOCC3)c3c(Nc4c(Cl)ccc5c4OCO5)ncnc3c2)CC1 [Saracatinib] + CC(C)C[C@H](NC(=O)[C@H](Cc1ccccc1)NC(=O)c1cnccn1)B(O)O [Bortezomib] (partner 0.002 µM)
criterion not met

Report whether reported relative viability is lower than 0.8 (strictly) for Cc1csc(=NC2CCCCC2)n1/N=C/c1ccc(O)c(O)c1O [MIM1] + CC(C)C[C@H](NC(=O)[C@H](Cc1ccccc1)NC(=O)c1cnccn1)B(O)O [Bortezomib] (partner 0.002 µM)
criterion not met

Report whether reported relative viability is lower than 0.8 (strictly) for Cc1csc(=NC2CCCCC2)n1/N=C/c1ccc(O)c(O)c1O [MIM1] + CC1(C)CCC(c2ccc(Cl)cc2)=C(CN2CCN(c3ccc(C(=O)NS(=O)(=O)c4ccc(N[C@H](CCN5CCOCC5)CSc5ccccc5)c(S(=O)(=O)C(F)(F)F)c4)cc3)CC2)C1 [Navitoclax] (partner 0.5 µM)
criterion not met
